Test system: T-47D breast
Assay: NCI-60 one-dose screen, 48 h
Details: 10 µM unless noted
The panel holds about 83,000 compounds, 20% with a hit somewhere; the sample as a whole holds those more often. Calls of active or inactive are those of the source. The calls were made as follows: active = growth percent below 10; inactive = the rest.
Bench note: report the call from active, inactive

Challenge: Entry COc1nc2ccccc2cc1/C=C1/C=C(c2ccccc2)NC1=O : call = ?
Response given: inactive

Challenge: Answer briefly: the call reported for CCCCCCCCNC(=O)[C@@H](N)CSCOC(C)=O in this assay.
Response given: inactive

Challenge: Hi, do you know how Nc1nc(=O)n([C@H]2CC=C(CO)O2)cc1F came out in this test?
Response given: inactive

Challenge: What did this assay record as the result for O=C1C=CC2(O)OC(c3ccccc3)CC(=O)C2=C1O (stereo not given) ?
Response given: inactive

Challenge: Dear colleague, could you share the recorded outcome for N=C(N)c1ccc(-c2ccc(-c3ccc(Cl)cc3Cl)s2)nc1 when you have a moment?
Response given: inactive

Challenge: Which result was noted for this compound in the test: COc1ccc(C2=NN3C(C2)c2cc(Br)ccc2OC3c2ccncc2)cc1 (stereo not given)
Response given: inactive

Challenge: GET /call?item= Nc1n[nH]c2cccc(C#Cc3cccc(C(=O)Nc4ccc(Cl)c(C(F)(F)F)c4)c3)c12 returns the recorded outcome of this test.
Response given: inactive

Challenge: Dear all, I need the recorded test outcome for O=C(c1ccccc1)[C@@H](c1ccccc1)[C@]1(O)C(=O)Nc2ccccc21 , thank you.
Response given: inactive

Challenge: Look up the recorded call for Cc1nc2ccccc2c(/C=C/c2ccc(Br)cc2)c1C(=O)/C=C/c1ccccc1 in this test.
Response given: inactive

Challenge: Could you please tell me the result logged for c1ccc2cc(Cn3cc[n+](Cc4ccc5ccccc5c4)c3)ccc2c1 in this assay?
Response given: active

Challenge: Look up the recorded call for CSc1nc(N)c2c(n1)NC(c1ccccc1)C1CCc3ccccc3C1=N2 (stereo not given) in this test.
Response given: inactive

Challenge: For this compound, state the assay outcome: CCOC(=O)c1cc(C(=O)c2cc(OC)cc(OC)c2)n2ncccc12
Response given: inactive

Challenge: Test call, this compound: CCOC(=O)c1c2c(n3ccc(NC(=O)CCN4CCCC4)cc13)C(=O)c1ncccc1C2=O
Response given: active

Challenge: // return assay outcome for CC1=NN(c2cccc(Cl)c2)C(=O)/C1=C\C=C\c1ccccc1
Response given: inactive

Challenge: Dear colleague, could you share the recorded outcome for C=C(C)Cn1c(SCC(=O)c2cccs2)nc2sc3c(c2c1=O)CCCC3 when you have a moment?
Response given: inactive

Challenge: Please indicate how the test categorized CCNCCNc1c(C)c(-c2ccc(C(F)(F)F)cc2)c(C#N)c2nc3ccccc3n12 .
Response given: inactive

Challenge: Assay result, entry C/C(=C(\c1ccc(OCCCN(C)C)cc1)c1ccc(OC(=O)Cc2ccccc2)cc1)c1ccc(Cl)cc1 — outcome?
Response given: inactive

Challenge: Could you check what this test reported for C=C1C(=O)O[C@H]2[C@H]1CC/C(COC(=O)NCc1ccc(Cn3c(=O)sn(CCCC)c3=O)cc1)=C\CC[C@@]1(C)O[C@@H]21 ?
Response given: inactive

Challenge: Which outcome did this test record for the compound O=C1c2ccccc2C(=O)c2cc(Cn3c[n+](Cc4ccc5ccccc5c4)c4ccccc43)ccc21 ?
Response given: inactive

Challenge: Please share the test call associated with Cn1ccnc1C(=O)/C=C/c1ccc(CC(=O)Nc2cc(F)c(F)c(F)c2)cc1 .
Response given: inactive

Challenge: How was CNC(=O)c1cc(Oc2ccc3nc(NC(=O)NC(C)C)sc3c2)ccn1 classified in this test?
Response given: inactive

Challenge: Per the records of this test, what outcome belongs to COc1cc2ncnc(Nc3ccc(S(=O)(=O)Nc4cc(C)on4)cc3)c2cc1OCCCN1CCOCC1 ?
Response given: inactive

Challenge: Dear colleague, could you share the recorded outcome for CCN1C(=O)N(CC)C2C1NN=c1s/c(=C\c3ccc(F)cc3)c(=O)n12 (stereo not given) when you have a moment?
Response given: inactive

Challenge: Kindly provide the recorded test outcome for the following compound: COc1cccc2cc(N(C)c3nc(C)nc4c3CCC4)ccc12
Response given: inactive

Challenge: Recorded call for COC(=O)CCc1c(/C=C2\N=C(c3ccc[nH]3)C=C2OC)[nH]c(C)c1C(=O)OCc1ccccc1 ?
Response given: active

Challenge: Entry CC(=O)c1c(/C=C/c2ccc(C)cc2)c2ccccc2[nH]c1=O : call = ?
Response given: inactive

Challenge: Given O=C(/C=C/c1ccco1)c1ccc(Nc2ccnc3cc(Cl)ccc23)cc1 , state the outcome it received in this test.
Response given: inactive

Challenge: Hello, I am checking results. What call was entered for COc1ccc(/C=N/NC(=O)Cn2nnc3ccccc32)cc1 ?
Response given: inactive

Challenge: I would be grateful if you could indicate the recorded call for O=c1ccc2c(ccc3ncccc32)o1 .
Response given: inactive

Challenge: What did this assay record as the result for Cn1ccnc1C(=O)/C=C/c1ccc(C(=O)Nc2ccccc2F)cc1 ?
Response given: inactive

Challenge: Assay outcome for C/C=C(/C)C(=O)O[C@@H]1CC(C)(C)CC2C34OC(=O)[C@@]21CC[C@@]3(C)[C@]1(C)CCC2C(C)(C)C(=O)CC[C@]2(C)C1C[C@@H]4O (stereo not given in full) : what was it?
Response given: inactive

Challenge: Which outcome did this test record for the compound COc1cc(OCc2cccc(-c3ccc4c(c3)OCCO4)c2C)cc(OC)c1C=O ?
Response given: inactive

Challenge: Status in this test for CCCn1cnc2c(c1=N)C(c1ccc(Cl)cc1)c1sc3c(F)cccc3c1O2 (stereo not given) ?
Response given: inactive

Challenge: Given O=C(Nc1ccc2c(c1)-c1ccccc1C2)C1CC(=O)N(c2ccc3c(c2)OCO3)C1 (stereo not given) , state the outcome it received in this test.
Response given: inactive

Challenge: Query: recorded result category for Cn1cc(-c2nc(-c3c[nH]c4ccncc34)cs2)c2cc(F)ccc21 in this test
Response given: active

---

System: UACC-257 melanoma
Assay: NCI-60 one-dose screen, 48 h
Settings: 10 µM unless noted
About 83,000 compounds went through this panel and 20% of them were active in at least one assay; those are over-represented in the sample as a whole. Activity calls are given as the source filed them. How the source made its calls: active means growth percent below 10; inactive means the rest.
Pick from active, inactive when you respond.

Challenge: For this molecule, state the assay outcome: NCCCCCNc1noc(Cc2c[nH]c3cc(Br)ccc23)n1
Response given: inactive

Challenge: Hi team, can someone confirm the assay call for COc1cc(CNC(=O)CCCC/C=C/C(C)C)ccc1OCc1cn(-c2cccc([N+](=O)[O-])c2)nn1 ?
Response given: inactive

Challenge: Dear colleague, could you share the recorded outcome for CN(C)CCCN(CCC1CCCCC1)CCC1CCCCC1 when you have a moment?
Response given: active

Challenge: Hey, what did the test say about COc1cc2c(cc1OC)CC[N+](CCC[N+](C)(C)C)=C2 ?
Response given: inactive

Challenge: I would be grateful if you could indicate the recorded call for Cc1oc2ccc(O)c(CN3CCCCCC3)c2c1C(=O)Nc1ccc(C(F)(F)F)cc1 .
Response given: inactive

Challenge: // return assay outcome for CCN1C(=O)N(CC)C2C1NC(=S)N2/N=C/C=C/c1ccccc1 (centres undefined)
Response given: inactive

Challenge: Please indicate how the test categorized COC(CCP(=O)(c1ccccc1)c1ccccc1)(C(=O)c1ccccc1)c1ccccc1 (centres undefined) .
Response given: inactive

Challenge: Record lookup: outcome of this test for CCCNNC(=O)c1ccc(CNC(=O)/C=C/c2ccccc2)cc1 ?
Response given: inactive

Challenge: Please state the recorded outcome for this molecule: COc1ccc(S(=O)(=O)Oc2ccc(-c3sc4cc(OS(=O)(=O)c5ccc(OC)cc5)ccc4c3C(=O)c3ccc(OCCN4CCCCC4)cc3)cc2)cc1
Response given: inactive

Challenge: Recorded test call requested for C[C@@H]1N=C(c2ccc(Cl)cc2Cl)Nc2nc3ccccn3c2C1=O
Response given: inactive

Challenge: Per the records of this test, what outcome belongs to CCOC(=O)CC1CSC(N/N=C(/C)c2cccc(C(F)(F)F)c2)=N1 (centres undefined) ?
Response given: inactive

Challenge: // param item: COc1cc(/C=N/NC(=O)c2ccc3nc(-c4ccc(Cl)cc4)[nH]c3c2)cc(OC)c1OC ; yields the recorded call
Response given: inactive

Challenge: Can you look up the reported call for O=C(CN1C(=O)NC2NC(=O)NC21)N/N=C/c1cccc([N+](=O)[O-])c1 (centres undefined) for me?
Response given: inactive

Challenge: Record lookup: outcome of this test for C#CCOC(=O)C(N)CSSCC(N)C(=O)O (centres undefined) ?
Response given: inactive

Challenge: # lookup: test call for CCOC(=O)c1c(Nc2nc3ccccc3s2)sc2c1CCC(=O)C2
Response given: inactive

Challenge: // param item: CNC1=C([N+](=O)[O-])C(c2ccc(OC)cc2)C(C#N)=C(c2ccc[nH]2)O1 (centres undefined) ; yields the recorded call
Response given: inactive

Challenge: Would you mind telling me which call this test gave CC(C)n1cc(C2=C(c3cccc4ccccc34)C(=O)NC2=O)c2cc(Br)ccc21 ?
Response given: inactive

Challenge: Hi, sorry to bother you, what did the test record for Clc1ccc2c(NCCCn3cnc4c(N5CCCC5)nc(Cl)nc43)ccnc2c1 ?
Response given: inactive

Challenge: For this molecule, state the assay outcome: C=C1CC[C@@H]2[C@](C)(COC(C)=O)[C@H](OC(C)=O)CC[C@@]2(C)[C@@H]1CC(Nc1ccc(S(=O)(=O)Nc2nccc(C)n2)cc1)C1=CCOC1=O (some centres undefined)
Response given: inactive
